# Test system: KATO III stomach cancer cell line
# Protocol Summary: In vitro cytotoxicity against human tumor cell line KATO-III
# Format: functional, cell-based
Assay Endpoint: IC50 (µM)

> print(dat)
                                   compound  assay.endpoint  assay.value
1  CCC1(O)C(=O)OCc2c1cc1n(c2=O)Cc2c-1nc1cc3c(cc1c2CCNC(C)C)OCO3 (centres undefined)            IC50        0.045
2  CC[C@@]1(O)C(=O)OCc2c1cc1n(c2=O)Cc2cc3ccccc3nc2-1 [CAMPTOTHECIN]            IC50        0.046
3  CCNCCc1c2c(nc3cc4c(cc13)OCO4)-c1cc3c(c(=O)n1C2)COC(=O)C3(O)CC (centres undefined)            IC50       0.0029
4  CCC1(O)C(=O)OCc2c1cc1n(c2=O)Cc2c-1nc1ccccc1c2CCNC(C)C (centres undefined)            IC50       0.0016
